Origin of values: patent US20250282812A1

# Assay name: Pharmacokinetic evaluation in cynomolgus monkeys (Test Example 5)
# Format: in vivo
# Particulars: cynomolgus monkey; nucleoside X28-1 in plasma; male cynomolgus monkeys; single iv 1.0 mg/kg
Measurement name: half-life (h)

• O=c1ccn([C@@H]2O[C@](F)(CO)[C@@H](O)[C@H]2O)c(=O)[nH]1 [Compound X28-1, reference compound] = 5.38

----------
# Assay name: Stability test of compounds in solutions at different pH values
# Particulars: buffered saline solution pH 6.8, 3 h
# Content reduction (%) listing for each entry below
Measurement name: Content reduction (%)

• O=c1ccn([C@@H]2O[C@](F)(CO)[C@@H](O)[C@H]2O)c(=O)[nH]1 [Compound X28-1, reference compound] = 8.0
• CC(C)C(=O)OC[C@@]1(F)O[C@@H](n2ccc(=O)n(COC(=O)C3CCCCC3)c2=O)[C@H](O)[C@@H]1O = 1.0
• CC(C)C(=O)OCn1c(=O)ccn([C@@H]2O[C@](F)(COC(=O)C(C)C)[C@@H](O)[C@H]2O)c1=O = 1.1
• CC(=O)OC[C@@]1(F)O[C@@H](n2ccc(=O)n(COC(=O)c3cccnc3)c2=O)[C@H](OC(C)=O)[C@@H]1OC(C)=O = 1.06
• CC(C)C(=O)OC[C@@]1(F)O[C@@H](n2ccc(=O)n(COC(=O)c3cccnc3)c2=O)[C@H](OC(=O)C(C)C)[C@@H]1OC(=O)C(C)C = 1.93
• CC(=O)OC[C@@]1(F)O[C@@H](n2ccc(=O)n(COC(=O)c3cccnc3)c2=O)[C@H](OC(C)=O)[C@@H]1OC(C)=O.Cl [X219 hydrochloride] = 0.98
• CCC(CC)C(=O)OCn1c(=O)ccn([C@@H]2O[C@](F)(COC(=O)C(C)C)[C@@H](O)[C@H]2O)c1=O = 1.2

----------
# Assay name: Stability test of compounds in solutions at different pH values
# Particulars: buffered saline solution pH 6.8, 9 h
Measurement name: Content reduction (%)

* CC(C)C(=O)OCn1c(=O)ccn([C@@H]2O[C@](F)(COC(=O)C(C)C)[C@@H](O)[C@H]2O)c1=O [Compound X51] | 3.0%
* CC(=O)OC[C@@]1(F)O[C@@H](n2ccc(=O)n(COC(=O)c3cccnc3)c2=O)[C@H](OC(C)=O)[C@@H]1OC(C)=O.Cl [X219 hydrochloride] | 3.09%
* CC(C)C(=O)OC[C@@]1(F)O[C@@H](n2ccc(=O)n(COC(=O)c3cccnc3)c2=O)[C@H](OC(=O)C(C)C)[C@@H]1OC(=O)C(C)C [Compound X206] | 3.84%
